tested on: B16; assay: Cytotoxicity against mouse B16 cells assessed as cell growth inhibition measured after 48 hrs by MTT assay; format: functional
recorded_endpoint: GI50 (nM)
Answers are plain numbers, in nM.

Consider the following illustrative entries.
>>> numeric_readout("COc1ccc(-c2cnnn2[C@@H]2O[C@@H]3O[C@@]4(C)CC[C@H]5[C@H](C)CC[C@@H]([C@H]2C)[C@@]35OO4)cc1")
40
>>> numeric_readout("CCCCCc1ccc(-c2cn([C@H]3O[C@@H]4O[C@@]5(C)CC[C@H]6[C@H](C)CC[C@@H]([C@@H]3C)[C@@]46OO5)nn2)cc1")
30

Continue with the next molecule.
Result for C[C@@H]1[C@@H](n2cc(-c3ccc(F)cc3)nn2)O[C@@H]2O[C@@]3(C)CC[C@H]4[C@H](C)CC[C@@H]1[C@@]24OO3 , tested on B16, GI50: 30

Values compiled from ChEMBL document CHEMBL5244230.
